These entries and their values trace back to PubChem BioAssay AID179.

The reader will find reported pEC50 values listed item by item below.
# System: CEM cells HIV-1 protection, formazan growth assay
# experimentalDetails: NCI AIDS Antiviral Assay
pEC50: −log10 of the molar value.

Below are worked cases with known answers.
Nc1n[n+]([O-])c2ccc(Cl)cc2[n+]1[O-]
< 3.70
CC(=O)C1(Cc2cccc3ccccc23)S(=O)(=O)OCCOS1(=O)=O
< 3.70
CCOC(=O)CN1C(=O)Cc2ccccc21
< 3.70
CC1(C)CNC[C@@](C)(O)C(=O)NC(C)(C)CNC[C@@](C)(O)C(=O)N1
< 3.70
O=C(O)c1nc2ccccc2nc1NCc1ccc(F)cc1
< 3.70
Cc1c(Cl)c(=O)oc2cc(OCC(=O)c3ccccc3)ccc12
< 4.00
O=c1[nH]c(=O)n(COCCO)c2ccsc12
< 3.70
CCC(=N\NC(N)=S)/C(C)=N/O
< 3.70

# pEC50 lookup, item O=c1ccc2cc(O)ccc2o1
< 3.70

Can you check CCOC(=O)C1C(=O)c2cccc(OC)c2C2COC(=O)N12 (configuration not stated) next?
< 3.60

---

# Tested on: CEM cells HIV-1 protection, formazan growth assay
# experimentalDetails: NCI AIDS Antiviral Assay
# runConditions: measured here: growth of uninfected CEM cells
The reader will find reported IC50 values listed item by item below.

Below are worked cases with known answers.
Cn1c2c(c(=O)n(C)c1=O)CN(Cc1ccccc1)CN2
> 200 µM
O=C(/C=C/c1ccccc1)c1ccc(Cl)cc1Cl
> 2.69 µM
CCSCCCSCCSCC
> 158 µM
CC(C)(C)OC(=O)NCCCCC(N)C(N)=O (stereo unspecified)
> 200 µM
CC1(C)CC(C2=NCCO2)CC(C)(C)N1
> 200 µM

# IC50 lookup, item O=S(=O)(O)c1cccc(N=Nc2ccc(N=Nc3ccc(Nc4ccccc4)c4c(S(=O)(=O)O)cccc34)c3ccccc23)c1
> 200 µM

Can you check CC(C)CCCC(C)[C@H]1CC[C@H]2[C@H]3CC[C@H]4C[C@@H](CCC=C(c5cc(Cl)c(O)c(C(=O)O)c5)c5cc(Cl)c(O)c(C(=O)O)c5)CC[C@]4(C)[C@H]3CC[C@]12C (stereo partly specified) next?
> 200 µM

Can you check CC(C)COP(C)(=O)C(N)(C(F)(F)F)C(F)(F)F (stereo unspecified) next?
> 200 µM

---

The reader will find reported pIC50 values listed item by item below.
# Test system: CEM cells HIV-1 protection, formazan growth assay
# experimentalDetails: NCI AIDS Antiviral Assay
# runConditions: measured here: growth of uninfected CEM cells
pIC50: −log10 of the molar value.

O=S(=O)(O)OC1CCCC1S(=O)(=O)O (stereo not given)
< 3.70
N#Cc1nc(-c2cccs2)oc1N
< 3.70
Cc1ccc(S(=O)(=O)N/N=C(/c2nc3ccc([N+](=O)[O-])cc3[nH]c2=O)C(O)c2ccc(C(O)/C(=N\NS(=O)(=O)c3ccc(C)cc3)c3nc4ccc([N+](=O)[O-])cc4[nH]c3=O)cc2)cc1 (stereo not given)
< 4.40
CC(=O)CSc1sc(C(C)=O)c(N)c1C#N
< 3.70

Attention now turns to another entry.
# pIC50 lookup, item Nc1ncnc2c1ccn2COC(CO)CO
< 3.70

---

# System: CEM cells HIV-1 protection, formazan growth assay
# experimentalDetails: NCI AIDS Antiviral Assay
The source made the active and inactive calls.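 Rule for the calls: active = compounds giving half or more protection of infected cells from virus-caused growth loss, again on retest; inactive = the rest.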
Pick from y = active, n = inactive when you respond.

Observe how each entry below is paired with its result.
O=C(CC(=O)C1CCOC1=O)C(=O)Nc1cccc(Cl)c1 (stereo not given)
n
CCOC(=O)C(C(=O)OCC)C(C(=O)OCC)(C(=O)OCC)C(C(=O)OCC)C(=O)OCC
n
Nn1c(=O)n(Cc2ccccc2)n(-c2ccccc2)c1=O
n
CCN(CCCl)CCCCNc1c2ccccc2nc2ccc(OC)cc12
n
COC(OC)c1cc2c(cc1C(=O)[C@@]13CCC[C@@H]1NC(=O)O3)OCO2
n

Field: outcome | Entry: O=C1c2ccccc2C(=O)c2nc(-c3ccccc3)c(-c3ccccc3)nc21
n

Can you check O=S1(=O)C(c2ccc(F)cc2)=C(O)c2cc3ccccc3nc21 next?
n

Can you check CC(=O)OC1CCC2(C)C(CCC3C4CCC(C(C)OC(C)=O)C4NC(=O)CC32)C1 (stereo not given) next?
n

Can you check CC12C=C[C@]3(CC[C@@H]4[C@@](C)(CO)CCC[C@]4(C)C3CC1)C2 (stereo not given in full) next?
n

Can you check COc1cc(/C=C(\NC(=O)c2ccccc2)c2nc3[nH]c(=S)[nH]c(=O)c3[nH]2)cc(OC)c1OC next?
n

Can you check C=CCC(O)C1=CC(=O)c2c(O)ccc(O)c2C1=O (stereo not given) next?
n

Can you check CCOP(=O)(OCC)C(Nc1ccc(Br)cc1)c1cccc([N+](=O)[O-])c1 (stereo not given) next?
n

Can you check Cc1ccc(Nc2ncnc3sc(SCc4ccccc4)nc23)cc1 next?
n

Can you check COC(=O)c1c(CC(=O)O)oc2c1CCCC2 next?
n

Can you check N#Cc1ccccc1NC(=O)/C(=N\N)C(C(=O)c1ccncc1)C1OC(=O)c2ccccc21 (stereo not given) next?
n

Can you check COC(CCC(C)C1OC23CC(OC(=O)CC(C(C)O)OC(=O)CC(O)(O2)C(C)CC3(C)C)C1C)c1cccc(O)c1 (stereo not given) next?
y

Can you check CCCCC[C@@H]1OC(=O)/C(=C2/CC[C@@H](CCCC)O2)C(=O)[C@@H]1O next?
n

Can you check Cc1nc(N)nc(N)c1CCCc1ccccc1 next?
n
